Reported growth values for a set of compounds
Test system: UACC-257 melanoma
Assay: NCI-60 one-dose screen, 48 h (100 = growth as untreated, 0 = no growth, -100 = all killed)
Conditions: 10 µM unless noted
Method: Cells are grown in 96 well plates and exposed to the test compound for 48 hours. Compounds are tested at a single concentration, which is 10^-5 M for most compounds. The reported endpoint is percent growth (GI% or GIPRCNT), where numbers from 0 - 100% represent growth inhibition, and numbers from -100% - 0 represent cell death. For example, a value of 40 represents 60% growth inhibition. A value of 0 means no net growth occurred over the course of the experiment. […]
Compounds without any hit were thinned out: in the full panel of roughly 83,000, 20% have a hit. Active and inactive are the calls of the source. How the source made its calls: active means growth percent below 10; inactive means the rest.
measuredAttribute: growth

inputSmiles	measuredAttribute	obsValue
O=C1c2cc3c(cc2-c2c1c1cc(Cl)c(Cl)cc1c(=O)n2C[C@H](O)CO)OCO3	growth	-52.9% (active)
COc1cc(-c2c3sc(=O)[nH]c3nc3c2c(=O)[nH]n3C(C)C)cc2c1OCO2	growth	99.2% (inactive)
CC1(C)CC(=O)C(c2c(-c3ccccc3)[nH]c3[nH]c(=S)[nH]c(=O)c23)=C(O)C1	growth	80.2% (inactive)
Cc1cc(Nc2nc(-c3cccnc3)nc3ccccc23)n[nH]1	growth	59.7% (inactive)
COc1cccc(-c2nc3sccn3c2-c2ccnc(NCCCNS(=O)(=O)c3ccccc3)c2)c1	growth	50.9% (inactive)
c1ccc(Sc2ncnc3ccccc23)cc1	growth	70.5% (inactive)
C/C(Cc1ccc(Cl)cc1)=C(\c1ccc(OCCN2CCCCCC2)cc1)c1ccc(OC(=O)C2CCCCC2)cc1	growth	91% (inactive)
CN1CCN(Cc2ccc(NC(=O)c3cncc(C#Cc4cnc(N)c5cccnc45)c3)cc2C(F)(F)F)CC1	growth	18.8% (inactive)
Brc1cccc(-c2cc(-c3ccc4c(c3)OCCO4)[nH]n2)c1	growth	62.4% [25 µM] (inactive)
CC(=O)Nc1ccc2c(c1)c(NC(C)=O)nn2C(=O)Nc1ccc(Cc2ccccc2)cc1	growth	87.2% (inactive)

* * *

tested on: MALME-3M melanoma; assay: NCI-60 one-dose screen, 48 h; details: 10 µM unless noted
Compounds without any hit were thinned out: in the full panel of roughly 83,000, 20% have a hit. Calls of active or inactive are those of the source. The calls were made as follows: active = growth percent below 10; inactive = the rest.
Possible outcomes: label 1 for active, label 0 for inactive

compound	className
O=S(=O)(Nc1ccc(Cl)cc1Cl)c1ccc(-c2cnc(C3CC3)o2)cc1	label 0
COc1ccc2c(c1)C(=O)/C(=C/c1cccc(OCC(=O)Nc3nc4c(s3)CCCC4)c1)O2	label 1
Nc1ccc(N2CCOCC2)cc1	label 0
CCCCNC(=O)NS(=O)(=O)c1ccc(N2N=C(c3cc(C)ccc3C)CC2c2cc(OC)c(OC)c(OC)c2)cc1 (centres undefined)	label 0
CC(C)[C@@H]1CC[C@]2(C(=O)NCCCCN=C(N)N)CC[C@]3(C)[C@H](CC[C@@H]4[C@@]5(C)CCC(=O)C(C)(C)[C@@H]5CC[C@]43C)[C@@H]12	label 0
COc1cc(NCCCCN=C(N)NC(N)=NC(C)C)c2ncccc2c1	label 1
COc1cc(/C=C2\CN(C(=O)CCN3CCC(=NO)CC3)C/C(=C\c3cc(OC)c(OC)c(OC)c3)C2=O)cc(OC)c1OC	label 1
CCc1ccccc1NC(=O)c1sc2nc3c(cc2c1N)C(=O)CCC3	label 0
CNCCCn1c2c(c3ccc([N+](=O)[O-])cc3c1=O)C(=O)c1cc(OC)cnc1-2	label 1

Origin of measurements: PubChem BioAssay (NCI)
